Target system: beta-catenin (human)
Sequence (B6V8E6 146-665 limits assumed): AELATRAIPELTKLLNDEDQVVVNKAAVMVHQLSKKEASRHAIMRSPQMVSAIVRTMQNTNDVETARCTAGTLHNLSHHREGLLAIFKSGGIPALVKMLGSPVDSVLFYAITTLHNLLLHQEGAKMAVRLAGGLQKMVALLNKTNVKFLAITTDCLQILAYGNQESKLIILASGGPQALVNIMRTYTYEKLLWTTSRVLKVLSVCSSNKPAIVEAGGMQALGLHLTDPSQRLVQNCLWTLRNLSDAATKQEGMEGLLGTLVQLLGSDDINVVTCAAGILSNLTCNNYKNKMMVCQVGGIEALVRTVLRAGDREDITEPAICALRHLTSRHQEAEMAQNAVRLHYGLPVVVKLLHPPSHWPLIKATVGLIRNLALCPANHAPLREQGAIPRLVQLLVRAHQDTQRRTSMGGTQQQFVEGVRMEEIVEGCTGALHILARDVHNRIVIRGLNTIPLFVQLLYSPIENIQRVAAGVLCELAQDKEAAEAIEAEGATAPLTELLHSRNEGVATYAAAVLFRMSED
Protocol: fluorescence polarization
*1 amine or outer side, *2 acyl side, *3 side chain or, on linkers, in order; H or OH if unused. Bridges are numbered along the chain shown (N, C = ends). Primed or numbered codes have the meaning given here. [ ]: non-standard residue; d: D form. B5(4) = 2-amino-2-(pent-4-en-1-yl)hept-6-enoic acid, stapled through each of its two olefin groups with other olefin-containing amino acid residues, O=C(C(CCCC=[*:3])(CCCC=[*:4])N[*:1])[*:2]; PyrS2″ = (S)-3-amino-1-((pent-4-en-1-yloxy)carbonyl)pyrrolidine-3-carboxylic acid (olefin stapling residue), C=CCCCOC(=O)N1CC[C@@](N[*:1])(C(=O)[*:2])C1; 2F3MeF(3) = aromatic amino acid residue, Cc1cccc(C[C@H](N[*:1])C(=O)[*:2])c1F; Phe(3-COOH) = N[C@@H](Cc1cccc(C(=O)O)c1)C(=O)O; 2F3MeF = Cc1cccc(C[C@H](N[*:1])C(=O)[*:2])c1F; Bta = N[C@@H](Cc1csc2ccccc12)C(=O)O; αAllylPro = C=CC[C@@]1(C(=O)O)CCCN1; BztA = aromatic amino acid residue; tBuAla = CC(C)(C)C[C@H](N)C(=O)O; 3Thi = N[C@@H](Cc1ccsc1)C(=O)O; Cha = N[C@@H](CC1CCCCC1)C(=O)O; TfeGA = not defined here; GlnR = not defined here; PL3 = not defined here; B5 = not defined here
Assay metric: IC50

# Binder, IC50
data = [
    ("Ac-[PL3]N[tBuAla][B5]D[Phe(3-COOH)]QAFK[PyrS2″][3Thi][BztA][GlnR]A-NH2 (staple 1-4 (inferred); bridge 10-14; not fully specified (residue 10, bridges); printed as Ac-PL3-Asn-Npg-B5-Asp-3COOHF-Gln-Ala-Phe-Lys*3-PyrS2-3Thi-BztA-GlnR*3-Ala-NH2; reading uncertain; also: Lys10 and GlnR14 marked *3) [I-88]", "< 50 nM"),
]

Qu. Given the binder Ac-[PL3]D[Cha][B5]D[Phe(3-COOH)]AAFK[PyrS2″][2F3MeF(3)][BztA][GlnR]A-NH2 (staple 1-4 (inferred); bridge 10-14; not fully specified (residue 10, bridges); printed as Ac-PL3-Asp-Cha-B5-Asp-3COOHF-Ala-Ala-Phe-Lys*3-PyrS2-2F3MeF-BztA-GlnR*3-Ala-NH2; reading uncertain; also: Lys10 and GlnR14 marked *3) [I-98] , what is its reported IC50?
Ans. < 50 nM

Qu. Entry to check: Ac-[αAllylPro]D[tBuAla][B5(4)]D[TfeGA]VAFK[PyrS2″][2F3MeF][Bta][GlnR]A-NH2 (bridge 10-14; not fully specified (bridges); reading uncertain; also: Lys*3 and GlnR*3 marked *3) [I-125]
Ans. < 50 nM
